- procedure.summary: Cytotoxicity against green monkey Vero cells incubated for 5 days by MTT assay
- Format: toxicity, cell-based
- test.parameters: chlorocebus sabaeus, time 5 day
Hi there, I'd appreciate the recorded CC50 at 120 h for every entry that follows.
Kindly answer with a numeric value in µM, unit omitted.

Please look up its CC50 at 120 h: COc1cc2c(cc1OC)C1(c3cc(OC)c(OC)cc3C2=O)c2cc(OC)c(OC)cc2C(=O)N1/N=C/c1cc(OC)c(OC)c(OC)c1
99.8

Please look up its CC50 at 120 h: COc1cc2c(cc1OC)C1(c3cc(OC)c(OC)cc3C2=O)c2cc(OC)c(OC)cc2C(=O)N1/N=C/c1cccs1
52.7

Please look up its CC50 at 120 h: COc1cc2c(cc1OC)C1(c3cc(OC)c(OC)cc3C2=O)c2cc(OC)c(OC)cc2C(=O)N1/N=C/c1ccc(N(C)C)cc1
122

Please look up its CC50 at 120 h: COc1cc(/C=N/N2C(=O)c3cc(OC)c(OC)cc3C23c2cc(OC)c(OC)cc2C(=O)c2cc(OC)c(OC)cc23)ccc1O
113
